TESTED TARGET: αvβ3 (Homo sapiens, UniProt P05106+P06756)
Construct: expressed in transfected cells; host or cells: K562
Sequence (P05106 27-788, one chain of several): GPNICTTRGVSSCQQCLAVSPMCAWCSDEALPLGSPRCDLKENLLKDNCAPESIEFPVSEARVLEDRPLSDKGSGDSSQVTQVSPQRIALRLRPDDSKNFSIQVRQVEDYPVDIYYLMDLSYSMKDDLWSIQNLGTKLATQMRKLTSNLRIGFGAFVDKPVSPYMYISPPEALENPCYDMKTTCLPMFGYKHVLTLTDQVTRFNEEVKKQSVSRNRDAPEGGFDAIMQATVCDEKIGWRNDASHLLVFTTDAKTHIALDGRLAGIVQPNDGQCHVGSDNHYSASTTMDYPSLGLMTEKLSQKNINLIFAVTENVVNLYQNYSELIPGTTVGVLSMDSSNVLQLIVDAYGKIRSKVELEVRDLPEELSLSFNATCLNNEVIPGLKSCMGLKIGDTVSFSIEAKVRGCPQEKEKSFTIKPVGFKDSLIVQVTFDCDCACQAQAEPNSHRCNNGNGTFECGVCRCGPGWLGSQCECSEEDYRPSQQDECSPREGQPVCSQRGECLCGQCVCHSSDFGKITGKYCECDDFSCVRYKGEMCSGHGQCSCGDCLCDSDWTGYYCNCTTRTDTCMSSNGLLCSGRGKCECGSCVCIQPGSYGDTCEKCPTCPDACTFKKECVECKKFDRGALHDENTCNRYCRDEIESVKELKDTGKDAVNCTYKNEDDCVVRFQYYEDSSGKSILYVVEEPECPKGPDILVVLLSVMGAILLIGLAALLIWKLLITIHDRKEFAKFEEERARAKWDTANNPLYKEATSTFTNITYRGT
PROCEDURE TEXT: Cell adhesion assay, K562-αvβ3 (LAP-b1)
Format: cell-based
EXPERIMENTAL SETUP: K562-αvβ3 cells, ligand LAP-b1, 2 mM MgCl2; mean; read-out: αvβ3 pIC50 (mean affinity, cell Adhesion Assay) (converted)
The reader will find reported IC50 values listed item by item below.
State the answer as a number, implicitly in nM.

Specify IC50 for O=C(O)C[C@H](CN1CC[C@@](F)(CCc2ccc3c(n2)NCCC3)C1)c1cccc(O[C@@H]2CCOC2)c1 [Example 3] and stop.
100

Specify IC50 for COCCOc1ccc(F)c(C(CC(=O)O)CN2CC[C@@](F)(CCc3ccc4c(n3)NCCC4)C2)c1 (stereo partly drawn) [Example 14] and stop.
501

Proceed to the following item.
Specify IC50 for O=C(O)C[C@H](CN1CC[C@@](F)(CCc2ccc3c(n2)NCCC3)C1)c1cccc(C2CCOC2)c1 (single isomer, unassigned; isomer 1) [Example 10] and stop.
63.1

====

TESTED TARGET: αvβ3 (Homo sapiens, UniProt P05106+P06756)
Construct: expressed in transfected cells; host or cells: K562
PROCEDURE TEXT: Cell adhesion assay, K562-αvβ3 (LAP-b1)
Assay type: cell-based
EXPERIMENTAL SETUP: K562-αvβ3 cells, ligand LAP-b1, 2 mM MgCl2
The reader will find reported αvβ3 pIC50 (mean affinity, cell Adhesion Assay) values listed item by item below.
Form rule: numeric answer, no unit written next to it.

Specify αvβ3 pIC50 (mean affinity, cell Adhesion Assay) for O=C(O)CC(O)(CC(=O)O)C(=O)O.O=C(O)C[C@H](CN1CC[C@@](F)(CCc2ccc3c(n2)NCCC3)C1)c1cccc(O[C@@H]2CCOC2)c1 and stop.
7.6

Specify αvβ3 pIC50 (mean affinity, cell Adhesion Assay) for O=C(O)/C=C\C(=O)O.O=C(O)C[C@H](CN1CC[C@@](F)(CCc2ccc3c(n2)NCCC3)C1)c1cccc(O[C@H]2CCOC2)c1 and stop.
7.3

Specify αvβ3 pIC50 (mean affinity, cell Adhesion Assay) for O=C(O)/C=C\C(=O)O.O=C(O)C[C@H](CN1CC[C@@](F)(CCc2ccc3c(n2)NCCC3)C1)c1cccc(O[C@@H]2CCOC2)c1 and stop.
7.3

Others:
Specify αvβ3 pIC50 (mean affinity, cell Adhesion Assay) for O=C(O)CC(O)(CC(=O)O)C(=O)O.O=C(O)C[C@H](CN1CC[C@@](F)(CCc2ccc3c(n2)NCCC3)C1)c1cccc(O[C@H]2CCOC2)c1 and stop.
7.3

====

The reader will find reported IC50 values listed item by item below.
TESTED TARGET: αvβ8 (Homo sapiens, UniProt P06756+P26012)
Construct: expressed in transfected cells; host or cells: K562
Sequence (P06756 31-889 limits assumed): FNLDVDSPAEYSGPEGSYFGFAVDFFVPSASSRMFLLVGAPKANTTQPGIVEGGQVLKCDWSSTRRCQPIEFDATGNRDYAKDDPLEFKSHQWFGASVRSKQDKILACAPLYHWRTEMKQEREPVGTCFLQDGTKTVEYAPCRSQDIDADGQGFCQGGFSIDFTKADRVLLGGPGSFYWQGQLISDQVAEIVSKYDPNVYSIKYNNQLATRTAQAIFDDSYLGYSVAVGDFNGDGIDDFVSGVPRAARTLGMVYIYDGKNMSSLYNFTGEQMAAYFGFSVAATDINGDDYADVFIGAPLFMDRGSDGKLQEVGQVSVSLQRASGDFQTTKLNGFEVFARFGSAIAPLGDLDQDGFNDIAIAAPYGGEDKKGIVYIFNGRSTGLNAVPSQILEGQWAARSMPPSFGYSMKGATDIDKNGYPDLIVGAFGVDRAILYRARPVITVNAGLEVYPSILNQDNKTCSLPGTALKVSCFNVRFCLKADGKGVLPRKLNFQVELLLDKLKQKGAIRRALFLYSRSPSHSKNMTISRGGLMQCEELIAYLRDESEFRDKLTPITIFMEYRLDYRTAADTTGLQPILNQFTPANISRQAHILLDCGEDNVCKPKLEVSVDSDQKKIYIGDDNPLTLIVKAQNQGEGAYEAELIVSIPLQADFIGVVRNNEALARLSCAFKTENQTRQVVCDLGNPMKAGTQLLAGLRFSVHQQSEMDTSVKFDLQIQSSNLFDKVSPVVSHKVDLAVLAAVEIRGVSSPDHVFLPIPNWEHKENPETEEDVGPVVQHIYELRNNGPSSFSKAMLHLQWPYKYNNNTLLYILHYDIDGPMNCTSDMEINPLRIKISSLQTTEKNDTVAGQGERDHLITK
Sequence (P06756 891-1048 partner limits assumed): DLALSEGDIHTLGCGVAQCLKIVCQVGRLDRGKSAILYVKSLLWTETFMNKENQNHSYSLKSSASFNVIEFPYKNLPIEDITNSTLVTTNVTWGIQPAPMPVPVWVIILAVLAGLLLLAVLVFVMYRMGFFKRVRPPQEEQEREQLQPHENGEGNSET
Sequence (P26012 43-769): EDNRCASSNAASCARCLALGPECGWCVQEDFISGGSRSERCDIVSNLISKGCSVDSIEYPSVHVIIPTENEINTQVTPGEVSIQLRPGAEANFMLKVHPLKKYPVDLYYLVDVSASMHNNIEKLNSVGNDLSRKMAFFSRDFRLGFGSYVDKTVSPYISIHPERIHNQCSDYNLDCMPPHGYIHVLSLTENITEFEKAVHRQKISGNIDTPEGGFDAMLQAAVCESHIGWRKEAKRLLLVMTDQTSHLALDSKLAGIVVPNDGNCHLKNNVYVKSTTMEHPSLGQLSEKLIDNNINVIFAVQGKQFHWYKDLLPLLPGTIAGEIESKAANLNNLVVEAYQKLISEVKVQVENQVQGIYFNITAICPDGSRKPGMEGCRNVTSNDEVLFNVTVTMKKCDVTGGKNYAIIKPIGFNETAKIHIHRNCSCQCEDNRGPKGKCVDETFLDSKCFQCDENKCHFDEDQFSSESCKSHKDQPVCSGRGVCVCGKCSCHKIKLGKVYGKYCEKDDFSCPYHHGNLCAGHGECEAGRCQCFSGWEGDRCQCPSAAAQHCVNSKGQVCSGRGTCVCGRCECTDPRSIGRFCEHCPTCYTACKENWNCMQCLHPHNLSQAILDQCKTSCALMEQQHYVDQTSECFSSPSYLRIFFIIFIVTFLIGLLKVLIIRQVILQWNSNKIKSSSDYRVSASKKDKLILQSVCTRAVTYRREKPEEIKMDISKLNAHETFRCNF
PROCEDURE TEXT: Cell adhesion assay, K562-αvβ8 (LAP-b1)
Format: cell-based
EXPERIMENTAL SETUP: K562-αvβ8 cells, ligand LAP-b1, 2 mM MgCl2; mean; read-out: αvβ8 pIC50 (mean affinity, cell Adhesion Assay) (converted)

Specify IC50 for COCC(C)(C)Oc1cccc([C@H](CC(=O)O)CN2CC[C@@](F)(CCc3ccc4c(n3)NCCC4)C2)c1 and stop.
50.1 nM

Specify IC50 for O=C(O)C[C@H](CN1CC[C@@](F)(CCc2ccc3c(n2)NCCC3)C1)c1cccc(OC[C@H]2CCCO2)c1 and stop.
100 nM

Specify IC50 for O=C(O)C[C@H](CN1CC[C@@](F)(CCc2ccc3c(n2)NCCC3)C1)c1cccc(C2CCOC2)c1 (single isomer, unassigned; isomer 1) and stop.
20 nM

Specify IC50 for O=C(O)C[C@H](CN1CC[C@@](F)(CCc2ccc3c(n2)NCCC3)C1)c1cccc(OC[C@@H]2CCCO2)c1 and stop.
100 nM

Specify IC50 for O=C(O)C[C@H](CN1CC[C@@](F)(CCc2ccc3c(n2)NCCC3)C1)c1cccc(OCC2COC2)c1 and stop.
25.1 nM

Others:
Specify IC50 for COCCOc1ccc(F)c(C(CC(=O)O)CN2CC[C@@](F)(CCc3ccc4c(n3)NCCC4)C2)c1 (stereo partly drawn) and stop.
158 nM
